Target: KRAS G12C (Homo sapiens, UniProt P01116, G12C)
Sequence (P01116 1-188 isoform P01116-2 G12C): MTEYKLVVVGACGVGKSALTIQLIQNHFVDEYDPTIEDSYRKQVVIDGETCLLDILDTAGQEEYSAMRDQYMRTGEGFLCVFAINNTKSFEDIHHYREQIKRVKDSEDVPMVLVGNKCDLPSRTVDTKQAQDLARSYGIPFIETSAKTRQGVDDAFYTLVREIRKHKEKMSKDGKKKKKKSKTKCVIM
Test: KRAS G12C NEA-HTRF experiment (SOS1-catalyzed displacement of GDP by GTP)
parameter: pIC50
Numbers only, as −log10 of the molar value.

                                   compound                               assaytarget  recordedresult
0  C=CC(=O)N1CCN2C(=O)c3c(N4CC(N(C)C5COC5)CC4(C)C)nc(-c4c(O)cccc4F)c(Cl)c3OC[C@H]2C1 (stereo partly drawn) [Z326]  KRAS G12C (Homo sapiens, UniProt P01116, G12C)            8.10
1  C=CC(=O)N1CCN2C(=O)c3c(N4C[C@@H](O)CC4(C)C)nc(-c4ccccc4F)c(F)c3OC[C@H]2C1 (single isomer, unassigned)  KRAS G12C (Homo sapiens, UniProt P01116, G12C)            6.80
2  C=CC(=O)N1CCN2C(=O)c3c(N4CC(O)CC4(C)C)nc(-c4c(F)cccc4OC)c(F)c3OC[C@H]2C1 (single isomer, unassigned)  KRAS G12C (Homo sapiens, UniProt P01116, G12C)            6.83
3  C=CC(=O)N1CCN2C(=O)c3c(N4C[C@H](N5CCOCC5)CC4(C)C)nc(-c4c(O)cccc4F)c(Cl)c3OC[C@H]2C1 (single isomer, unassigned)  KRAS G12C (Homo sapiens, UniProt P01116, G12C)            7.72
4  C=CC(=O)N1CCN2C(=O)c3c(N4CCN(C)C[C@@H]4C)nc(-c4c(F)ccc(F)c4O)c(Cl)c3OC[C@H]2C1  KRAS G12C (Homo sapiens, UniProt P01116, G12C)            6.79

Problem: Annotate the compound C=CC(=O)N1CCN2C(=O)c3c(N4CC(N5CCC(F)(F)C5)CC4(C)C)nc(-c4ccccc4F)c(Cl)c3OC[C@H]2C1 (stereo partly drawn) with its measured pIC50.
Result: 7.36
